This listing pairs compounds with measured composite z-score.
# System: Sam68 (KHDRBS1)
# Assay protocol: compounds binding KHDRBS1 protein – biochemical, small-molecule microarray, 635 nm fluorescence, primary screen (AID 1125);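 also: score merges 667 nm channel intensity with signal to noise over triplicate slides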
# Reported conditions: higher = more signal
// no unit, no text: just the number

composite z-score measured on CC(CO)N1C(=O)[C@@H]2C3C(=O)OCCC/C=C\[C@H]3OC23C=CCN(CCN2CCOCC2)C(=O)[C@@H]13 (stereo not given in full) = 0.191

In plain terms, `NC(=O)[C@@]1(Cc2ccccc2)N=C(c2ccc(OCCCO)cc2)O[C@H]1c1ccccc1` has a documented composite z-score of 0.572

For reference, reported composite z-score for `CCCC[C@@H]1C[C@H]1[C@@H](NC(=O)c1cccnc1)c1ccc(Cl)cc1` stands at -1.27

Just so you know, measured composite z-score for `CCCCC(=C=CC[C@H](O)c1cccc(OCCO)c1)C[C@H](O)c1ccccn1` came out at -0.15

Form field composite z-score, entry `NC(=O)[C@@H]1[C@H]2C(=O)O[C@H](c3ccccc3)[C@H](c3ccccc3)N2[C@H](c2ccc(OCCO)cc2)[C@@]12C(=O)Nc1ccc(C#CC3=CCCCC3)cc12` : 1.32

Form: compound = CN1C(=O)C2C=CC(C(O)c3ccccc3)N(N3CCCCC3)C2C1=O (stereo not given) ; composite z-score = 1.02

Kindly note the recorded composite z-score for `CCCCC(=C=CC[C@@H](O)c1cccc(OCCO)c1)C[C@@H](O)c1ccccn1` , which is 1.29

Reported composite z-score ( `COCCOC(=O)N1C(=O)[C@@]2(c3cc(C#CC4(O)CCCCCC4)ccc31)[C@H](C(=O)Nc1nc3ccccc3s1)[C@H]1C(=O)O[C@H](c3ccccc3)[C@H](c3ccccc3)N1[C@@H]2c1ccccc1OCCO` ) = 1.3

Note to self: composite z-score recorded for C=CCC(OC(C)=O)[C@@H]1[C@@H](N(Cc2cc3ccccc3o2)C(=O)Cc2ccc(OC)cc2)c2cc(OCCCO)ccc2N1C(=O)c1ccc2ccccc2c1 (stereo not given in full) was -0.427

The compound listed as COc1ccc(NN2C(C(O)c3ccc(N(C)C)cc3)C=CC3C(=O)N(C4CCCCC4)C(=O)C32)cc1 (stereo not given) has a reported composite z-score of 1.31

----------
# System: XIP peptide (Xip251-270)
# Assay protocol: compounds binding XIP fragment 251-270 – biochemical, small-molecule microarray, fluorescence 635/667 nm, 0.5 µg/mL protein, primary screen (AID 1183)
# Reported conditions: fluorescence 635 nm, higher = more signal
Quick rule for you: composite z-score at 0.8 or higher means condition met, lower means condition not met.

{"Compound": "CCOc1cc(C(O)C2C=CC3C(=O)N(c4ccccc4)C(=O)C3N2Nc2ccc(C(C)C)cc2)ccc1O (configuration not stated)", "Label": "condition met"}
{"Compound": "C=CCN(Cc1ccccc1)C(=O)C(c1cccs1)N(C(=O)/C=C\\C(=O)O)c1ccc(CCOCCO)cc1 (configuration not stated)", "Label": "condition not met"}
{"Compound": "C=C(CCCC)/C(=C/C[C@@H](OC(C)=O)c1ccccc1OCCO)c1cc(C(=O)OC)ccc1OC", "Label": "condition met"}
{"Compound": "CCCC[C@@H]1C[C@H]1[C@@H](NC(=O)c1cccnc1)c1ccc(Cl)cc1", "Label": "condition not met"}

Decide: composite z-score of `CCOC(=O)C[C@H]1[C@H](OC(=O)c2cc3ccccc3oc2=O)[C@@H](NC(=O)CC(C)C)c2cc(OCCCO)ccc2N1C(=O)c1ccccc1` >= 0.8?
condition not met

Is reported composite z-score greater than or equal to 0.8 here: `O=C1O[C@H](c2ccccc2)[C@H](c2ccccc2)N2[C@H]1[C@@H](C(=O)N1CCN(c3ncccn3)CC1)[C@]1(C(=O)Nc3ccc(C#CC4=CCCCC4)cc31)[C@H]2c1ccccc1OCCO`
condition met
